Target: Methoprene-tolerant (Met) protein, AaMet (Aedes aegypti)
Sequence (Q58FS0 1-597): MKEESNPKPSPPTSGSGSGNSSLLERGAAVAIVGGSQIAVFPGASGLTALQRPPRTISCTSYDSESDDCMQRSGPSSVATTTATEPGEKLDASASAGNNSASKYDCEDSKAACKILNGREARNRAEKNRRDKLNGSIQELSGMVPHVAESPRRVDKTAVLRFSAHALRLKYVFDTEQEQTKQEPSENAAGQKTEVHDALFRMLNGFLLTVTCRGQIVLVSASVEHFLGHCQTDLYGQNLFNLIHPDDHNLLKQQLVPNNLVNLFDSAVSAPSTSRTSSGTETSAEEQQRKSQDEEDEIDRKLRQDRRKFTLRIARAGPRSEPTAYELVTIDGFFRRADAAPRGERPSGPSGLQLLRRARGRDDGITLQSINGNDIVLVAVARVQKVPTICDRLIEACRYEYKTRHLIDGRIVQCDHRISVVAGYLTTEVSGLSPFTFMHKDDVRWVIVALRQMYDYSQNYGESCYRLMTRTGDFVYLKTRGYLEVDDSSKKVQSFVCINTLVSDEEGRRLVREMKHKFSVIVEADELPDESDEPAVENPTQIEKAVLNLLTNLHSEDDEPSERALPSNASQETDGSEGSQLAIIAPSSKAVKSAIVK
readout-name: Kd (nM)
Kindly provide the numeric value in nM only, without the unit symbol.

QUERY: Hello, please tell me recorded Kd for this one: "COC(=O)/C=C(\C)CC/C=C(\C)CC[C@H]1OC1(C)C"
RESULT: 4.4
